ASSAYED SYSTEM: T1, Human IL-18Rα ectodomain (amino acids 19-329), biotinylated (human, UniProt Q13478 19-329, biotin on the AviTag (BirA ligase))
T1 construct: range 19-329; Secreted from insect cells (gp67 signal peptide removed); also called hIL-18Rα; hIL18Rα
T1 sequence: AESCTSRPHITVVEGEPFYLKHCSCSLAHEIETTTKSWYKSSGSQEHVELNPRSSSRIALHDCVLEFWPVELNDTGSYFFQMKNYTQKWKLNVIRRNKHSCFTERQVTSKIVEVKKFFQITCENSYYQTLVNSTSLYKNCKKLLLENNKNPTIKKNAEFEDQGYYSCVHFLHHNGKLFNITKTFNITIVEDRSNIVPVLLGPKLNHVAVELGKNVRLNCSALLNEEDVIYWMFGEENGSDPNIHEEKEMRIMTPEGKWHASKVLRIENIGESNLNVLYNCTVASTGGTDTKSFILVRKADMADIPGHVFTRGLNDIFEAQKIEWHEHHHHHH
EXPERIMENT NOTES: SPR
VALUE KIND: Kd (nM)

[[record]]
binder = "SEQ ID NO: 91 (second generation human DR-IL-18 variant 6-29) (ligand, Engineered variant; recombinant soluble analyte in SPR and cell assays) YFGKLESKLSVIRNLNDQVLFIDQGNRPLFEDMTDSDCRDNAPRTIFIISKYSDSRARGLAVTISVKCEKISTLSCENKIISFKEMNPPDNIKDTKSDIIFFQRNVPGHGRKMQFESSSYEGYFLACEKERDLFKLILKKEDELGDRSIMFTVQNED"
value_kind = "Kd"
measurement_units = "nM"
test_result = 2.7

[[record]]
binder = "SEQ ID NO: 87 (second generation human DR-IL-18 variant 6-31) (ligand, Engineered variant; recombinant soluble analyte in SPR and cell assays) YFGKLESKLSVIRNLNDQVLFIDQGNRPLFEDMTDSDCRDNAPRTIFIISKYGDSGARGLAVTISVKCEKISTLSCENKIISFKEMNPPDNIKDTKSDIIFFERDVPGHSGKVQFESSSYEGYFLACEKERDLFKLILKKEDELGDRSIMFTVQNED"
value_kind = "Kd"
measurement_units = "nM"
test_result = 19.4

[[record]]
binder = "SEQ ID NO: 90 (second generation human DR-IL-18 variant 6-27) (ligand, Engineered variant; recombinant soluble analyte in SPR and cell assays) YFGKLESKLSVIRNLNDQVLFIDQGNRPLFEDMTDSDCRDNAPRTIFIISKYSDSRARGLAVTISVKCEKISTLSCENKIISFKEMNPPDNIKDTKSDIIFFARSVPGHGRKTQFESSSYEGYFLACEKERDLFKLILKKEDELGDRSIMFTVQNED"
value_kind = "Kd"
measurement_units = "nM"
test_result = 3.5

[[record]]
binder = "SEQ ID NO: 89 (second generation human DR-IL-18 variant 6-12) (ligand, Engineered variant; recombinant soluble analyte in SPR and cell assays) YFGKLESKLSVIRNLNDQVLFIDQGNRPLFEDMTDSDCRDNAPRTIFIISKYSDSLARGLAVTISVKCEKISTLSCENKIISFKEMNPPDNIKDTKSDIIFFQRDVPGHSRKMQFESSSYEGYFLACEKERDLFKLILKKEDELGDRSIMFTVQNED"
value_kind = "Kd"
measurement_units = "nM"
test_result = 2.2

